Recorded measurements of IC50, one per entry
Target: USP28 (Homo sapiens (Human), UniProt Q96RU2)
Sequence (Q96RU2 whole entry): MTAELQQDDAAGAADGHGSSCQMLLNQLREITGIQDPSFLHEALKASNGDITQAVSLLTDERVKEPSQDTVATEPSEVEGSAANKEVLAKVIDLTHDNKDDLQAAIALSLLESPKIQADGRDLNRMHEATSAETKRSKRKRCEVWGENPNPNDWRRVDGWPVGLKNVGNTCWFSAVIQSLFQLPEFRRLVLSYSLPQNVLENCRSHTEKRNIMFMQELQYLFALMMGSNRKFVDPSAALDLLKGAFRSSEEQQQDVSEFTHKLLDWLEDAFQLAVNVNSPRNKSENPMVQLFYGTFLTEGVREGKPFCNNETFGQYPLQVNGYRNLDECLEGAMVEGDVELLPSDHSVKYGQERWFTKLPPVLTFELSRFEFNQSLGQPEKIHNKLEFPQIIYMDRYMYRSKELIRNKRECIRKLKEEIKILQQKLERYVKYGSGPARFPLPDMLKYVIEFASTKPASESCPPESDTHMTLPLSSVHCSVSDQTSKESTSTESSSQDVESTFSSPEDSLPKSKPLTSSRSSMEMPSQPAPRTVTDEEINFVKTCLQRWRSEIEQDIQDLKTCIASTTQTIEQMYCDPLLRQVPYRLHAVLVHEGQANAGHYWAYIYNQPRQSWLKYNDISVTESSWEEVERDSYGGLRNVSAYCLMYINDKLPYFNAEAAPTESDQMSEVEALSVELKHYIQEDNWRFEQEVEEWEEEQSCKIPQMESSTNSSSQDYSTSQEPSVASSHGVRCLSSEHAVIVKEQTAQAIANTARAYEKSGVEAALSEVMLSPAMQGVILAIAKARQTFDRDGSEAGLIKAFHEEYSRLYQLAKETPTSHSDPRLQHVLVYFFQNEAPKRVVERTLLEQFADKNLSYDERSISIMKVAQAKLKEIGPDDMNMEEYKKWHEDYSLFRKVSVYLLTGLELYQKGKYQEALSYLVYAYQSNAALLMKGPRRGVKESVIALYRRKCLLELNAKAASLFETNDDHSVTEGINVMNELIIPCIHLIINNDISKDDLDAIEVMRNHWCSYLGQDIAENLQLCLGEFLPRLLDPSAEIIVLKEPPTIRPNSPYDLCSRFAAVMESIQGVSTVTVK

{"compound": "CNc1ccc2c(N)c(C(=O)NCCc3ccc(N4CCN(C)CC4)cc3)sc2n1", "IC50": "< 200 nM"}
{"compound": "Cc1ccc2c(N)c(C(=O)NCCc3ccc(N4CCN[C@@H](C)C4)cc3)sc2n1", "IC50": "200 to 2000 nM"}
{"compound": "Cc1nc2sc(C(=O)NCCc3ccc(N4CCNCC4)c(Cl)c3)c(N)c2cc1F", "IC50": "200 to 2000 nM"}
{"compound": "Nc1c(C(=O)NCCc2ccc(N3CCNCC3)c(Cl)c2)sc2nc(C(F)F)ccc12", "IC50": "2000 to 10000 nM"}
{"compound": "Cc1nc2sc(C(=O)NCCc3cc(F)c(N4CCNCC4)cc3F)c(N)c2cc1F", "IC50": "200 to 2000 nM"}
{"compound": "Cc1ccc2c(N)c(C(=O)NCCc3cc(F)c(N4CCNCC4)c(F)c3)sc2n1", "IC50": "< 200 nM"}
{"compound": "C[C@@H](O)c1ccc2c(N)c(C(=O)NCCc3ccc(N4CCNCC4)cc3)sc2n1 (single isomer, unassigned)", "IC50": "200 to 2000 nM"}
{"compound": "Cc1ccc2c(N)c(C(=O)N[C@H]3C[C@H](c4ccc(N5CCNCC5)cc4)C3)sc2n1", "IC50": "200 to 2000 nM"}
{"compound": "Cc1ccc2c(N)c(C(=O)NCCc3ccc4c(c3)C[C@@H](C(=O)O)C4)sc2n1", "IC50": "200 to 2000 nM"}
{"compound": "Cc1ccc2c(N)c(C(=O)NCCc3ccc(N4CCNCC4)c(F)c3)sc2n1", "IC50": "2000 to 10000 nM"}
{"compound": "Cc1ccc2c(N)c(C(=O)NCCc3ccc4c(c3)C[C@H](C(=O)O)C4)sc2n1", "IC50": "200 to 2000 nM"}
{"compound": "Cc1ccc2c(N)c(C(=O)NCCc3ccc(N4CCn5cncc5C4)cc3)sc2n1", "IC50": "< 200 nM"}
{"compound": "Cc1ccc2c(N)c(C(=O)NCCc3ccc(C4CCNCC4)c(F)c3)sc2n1", "IC50": "< 200 nM"}
{"compound": "Cc1ccc2c(N)c(C(=O)NCCc3ccc(N4CCNCC4)c(-c4ccc(C(=O)N5CCCC5)cc4)c3)sc2n1", "IC50": "200 to 2000 nM"}
{"compound": "Cc1ccc2c(N)c(C(=O)NCCc3ccc(N4CC5CCC(C4)N5)c(Cl)c3)sc2n1", "IC50": "200 to 2000 nM"}
{"compound": "Nc1c(C(=O)NCCc2ccc(N3CCNCC3)cc2)sc2ncc(C(F)F)cc12", "IC50": "2000 to 10000 nM"}
{"compound": "Cc1ccc2c(N)c(C(=O)NC[C@@H](C)c3cc(F)c(N4CCNCC4)cc3F)sc2n1", "IC50": "200 to 2000 nM"}
{"compound": "Cc1nc2sc(C(=O)NC[C@@H](C)c3ccc(N4CC5CCC(C4)N5)c(F)c3)c(N)c2cc1F (single isomer, unassigned)", "IC50": "200 to 2000 nM"}
{"compound": "Cc1ccc2c(N)c(C(=O)NCCc3ccc(N4CCNCC4)c(C4CC4)c3)sc2n1", "IC50": "< 200 nM"}
{"compound": "Nc1c(C(=O)NCCc2ccc(N3CCNCC3)cc2)sc2nc(C3CC3)ccc12", "IC50": "< 200 nM"}
{"compound": "CN1CCN(c2ccc(CCNC(=O)c3sc4nc(Cl)ccc4c3N)cc2)CC1", "IC50": "200 to 2000 nM"}
{"compound": "CCc1nc2sc(C(=O)NCCc3ccc(N4CCNCC4)cc3)c(N)c2cc1F", "IC50": "< 200 nM"}
{"compound": "Nc1cc(C(F)F)c2c(N)c(C(=O)NCCc3ccc(N4CCNCC4)cc3)sc2n1", "IC50": "< 200 nM"}
{"compound": "Cc1ccc2c(N)c(C(=O)NCCc3cc(F)c(N4CCNCC4)c(Cl)c3)sc2n1", "IC50": "< 200 nM"}
{"compound": "Cc1cc(N)nc2sc(C(=O)NCCc3ccc(N4CCNCC4)c(Cl)c3)c(N)c12", "IC50": "200 to 2000 nM"}
{"compound": "Cc1cnc2sc(C(=O)NCCc3ccc(N4CCNCC4)c(Cl)c3)c(N)c2c1", "IC50": "2000 to 10000 nM"}
{"compound": "CCc1cc(CCNC(=O)c2sc3nc(C)ccc3c2N)ccc1N1CCNCC1", "IC50": "< 200 nM"}
{"compound": "Cc1ccc2c(N)c(C(=O)NCCc3ccc(N4CC[C@@H]5NCC[C@@H]54)cc3)sc2n1 (single isomer, unassigned)", "IC50": "< 200 nM"}
{"compound": "COc1ccc2c(N)c(C(=O)NCCc3ccc(N4CCNCC4)cc3)sc2n1", "IC50": "200 to 2000 nM"}
{"compound": "Cc1ccc2c(N)c(C(=O)NCCc3ccc(C(=O)O)cc3)sc2n1", "IC50": "200 to 2000 nM"}
{"compound": "Cc1ccc2c(N)c(C(=O)NCCc3ccc(N4CCNCC4)cc3Cl)sc2n1", "IC50": "< 200 nM"}
{"compound": "Nc1c(C(=O)NCCc2cc(F)c(N3CC4CCC(C3)N4)cc2F)sc2ncc(F)cc12", "IC50": "< 200 nM"}

###

# IC50 measurements, system: UniProt Q96RU2

{"compound": "Cc1nc2sc(C(=O)NCCc3ccc(N4CCNCC4)cc3)c(N)c2cc1C1CC1", "IC50": "2000 to 10000 nM"}
{"compound": "Cc1ccc2c(N)c(C(=O)NCCc3ccc(N4CCNCC4)c(-c4ccccn4)c3)sc2n1", "IC50": "2000 to 10000 nM"}
{"compound": "CCNc1ccc2c(N)c(C(=O)NCCc3ccc(N4CCNCC4)cc3)sc2n1", "IC50": "< 200 nM"}
{"compound": "CCOc1ccc2c(N)c(C(=O)NCCc3ccc(N4CCNCC4)cc3)sc2n1", "IC50": "200 to 2000 nM"}
{"compound": "Cc1cc(C(F)(F)F)c2c(N)c(C(=O)NCCc3ccc(N4CCNCC4)c(F)c3)sc2n1", "IC50": "200 to 2000 nM"}
{"compound": "CN[C@@H]1CN(c2cc(F)c(CCNC(=O)c3sc4nc(C)ccc4c3N)cc2F)C[C@H]1F (single isomer, unassigned)", "IC50": "200 to 2000 nM"}
{"compound": "C[C@H](CNC(=O)c1sc2ncc(F)cc2c1N)c1cc(F)c(N2CC3CCC(C2)N3)cc1F (single isomer, unassigned)", "IC50": "2000 to 10000 nM"}

###

Biological target: UniProt Q96RU2
Recorded measurements of IC50, one per entry

{"compound": "Cc1ccc2c(N)c(C(=O)NCCc3ccc(N4CC5CC(C4)N5)cc3)sc2n1 [Compound I-65]", "testedOn": "UniProt Q96RU2", "IC50": "< 200 nM"}
{"compound": "Nc1c(C(=O)NCCc2ccc(N3CCNCC3)cc2)sc2nc(Cl)ccc12 [Compound I-57]", "testedOn": "UniProt Q96RU2", "IC50": "200 to 2000 nM"}
{"compound": "Cc1ccc2c(N)c(C(=O)NCCc3ccc(N4CCn5ccnc5C4)cc3)sc2n1 [Example I-116]", "testedOn": "UniProt Q96RU2", "IC50": "200 to 2000 nM"}
{"compound": "Cc1ccc2c(N)c(C(=O)NCCc3cc(F)c(N4C[C@H]5C[C@@H]4CN5)cc3F)sc2n1 [Compound I-53]", "testedOn": "UniProt Q96RU2", "IC50": "< 200 nM"}
{"compound": "C[C@H](O)c1ccc2c(N)c(C(=O)NCCc3ccc(N4CCNCC4)cc3)sc2n1 (single isomer, unassigned) [Example I-221]", "testedOn": "UniProt Q96RU2", "IC50": "10000 to 25000 nM"}
{"compound": "Cc1ccc2c(N)c(C(=O)NC[C@H](C)c3ccc(N4CC5CCC(C4)N5)c(C#N)c3)sc2n1 (single isomer, unassigned) [Example I-110]", "testedOn": "UniProt Q96RU2", "IC50": "200 to 2000 nM"}
{"compound": "Cc1nc2sc(C(=O)NCCc3ccc(N4CCNCC4)cc3)c(N)c2cc1F [Compound I-63]", "testedOn": "UniProt Q96RU2", "IC50": "< 200 nM"}
{"compound": "Cc1ccc2c(N)c(C(=O)NCCc3ccc(N4CC[C@@H](N(C)C)C4)cc3)sc2n1 [Example I-117]", "testedOn": "UniProt Q96RU2", "IC50": "200 to 2000 nM"}
{"compound": "Nc1c(C(=O)NCCc2ccc(N3CCNCC3)c(Cl)c2)sc2ncc(F)cc12 [Compound I-39]", "testedOn": "UniProt Q96RU2", "IC50": "2000 to 10000 nM"}
{"compound": "Cc1nc2sc(C(=O)NCCc3cc(F)c(N4CC5CCC(C4)N5)cc3F)c(N)c2cc1F [Compound I-72]", "testedOn": "UniProt Q96RU2", "IC50": "< 200 nM"}
{"compound": "CN[C@H]1CN(c2cc(F)c(CCNC(=O)c3sc4nc(C)ccc4c3N)cc2F)C[C@H]1F (single isomer, unassigned) [Example I-212]", "testedOn": "UniProt Q96RU2", "IC50": "200 to 2000 nM"}
{"compound": "Nc1c(C(=O)NCCc2ccc(C3CCNCC3)cc2)sc2nc(Cl)ccc12 [Compound I-60]", "testedOn": "UniProt Q96RU2", "IC50": "200 to 2000 nM"}
{"compound": "Cc1ccc2c(N)c(C(=O)NCCc3ccc(C4CC5CCC(C4)N5)cc3)sc2n1 (single isomer, unassigned) [Example I-172]", "testedOn": "UniProt Q96RU2", "IC50": "< 200 nM"}
{"compound": "Cc1ccc2c(N)c(C(=O)NCCc3ccc(N4CCNCC4)c(Cl)c3)sc2n1 [Example I-77]", "testedOn": "UniProt Q96RU2", "IC50": "200 to 2000 nM"}
{"compound": "CN(C)c1ccc2c(N)c(C(=O)NCCc3ccc(N4CCNCC4)cc3)sc2n1 [Example I-186]", "testedOn": "UniProt Q96RU2", "IC50": "2000 to 10000 nM"}
